biological target: SARS-CoV-2 3CL Protease (Severe acute respiratory syndrome coronavirus 2, UniProt P0DTD1); assay: 3CL protease SARS-CoV-2 activity (M^Pro assay), fluorescence kit; type: biochemical; conditions: Conc. 0.1; ∆T 30; positive control 100

Compound: C[C@@H]1O[C@@H](O[C@H]2[C@H](Oc3cc(O)c4c(c3)O[C@H](c3ccc(O)cc3)CC4=O)O[C@H](CO)[C@@H](O)[C@@H]2O)[C@H](O)[C@H](O)[C@H]1O [Compound 5, naringin]
∆RFU: 98.03
//
Compound: O=C(O)/C=C/c1ccc(O)cc1 [Compound 7, p-coumaric acid]
∆RFU: 98.73
//
Compound: O=c1cc(-c2ccc(O)cc2)oc2c([C@@H]3O[C@H](CO)[C@@H](O)[C@H](O)[C@H]3O)c(O)cc(O)c12 [Compound 3, vitexin]
∆RFU: 97.59
//
Compound: O=C(O)c1cc(O)c(O)c(O)c1 [Compound 8, gallic acid]
∆RFU: 97.92
//
Compound: CC1=CC(=O)c2c(O)cccc2C1=O [Plumbagin, reference compound]
∆RFU: 95.89
//
Compound: O=c1cc(-c2ccc(O)c(-c3c(O)cc(O)c4c(=O)cc(-c5ccc(O)cc5)oc34)c2)oc2cc(O)cc(O)c12 [Compound 2, amentoflavone]
∆RFU: 97.92
//
Compound: Oc1cc(O)c2c(c1)O[C@H](c1ccc(O)c(O)c1)[C@@H](O)C2 [Compound 6, catechin]
∆RFU: 94.96
//
Compound: C[C@@H]1O[C@@H](OC[C@H]2O[C@@H](Oc3c(-c4ccc(O)c(O)c4)oc4cc(O)cc(O)c4c3=O)[C@H](O)[C@@H](O)[C@@H]2O)[C@H](O)[C@H](O)[C@H]1O [Compound 4, rutin]
∆RFU: 96.73

###

Quick note: these are IC50 numbers for system: SARS-CoV-2 3CL Protease (Severe acute respiratory syndrome coronavirus 2)
Result type: IC50

Molecule: O=C(O)/C=C/c1ccc(O)cc1 [Compound 7, p-coumaric acid]
System tested: SARS-CoV-2 3CL Protease (Severe acute respiratory syndrome coronavirus 2)
Result type: IC50
Recorded measurement: 471 µM
--
Molecule: Oc1cc(O)c2c(c1)O[C@H](c1ccc(O)c(O)c1)[C@@H](O)C2 [Compound 6, catechin]
System tested: SARS-CoV-2 3CL Protease (Severe acute respiratory syndrome coronavirus 2)
Result type: IC50
Recorded measurement: 90.3 µM
--
Molecule: O=C(O)c1cc(O)c(O)c(O)c1 [Compound 8, gallic acid]
System tested: SARS-CoV-2 3CL Protease (Severe acute respiratory syndrome coronavirus 2)
Result type: IC50
Recorded measurement: 178 µM
--
Molecule: O=c1cc(-c2ccc(O)c(-c3c(O)cc(O)c4c(=O)cc(-c5ccc(O)cc5)oc34)c2)oc2cc(O)cc(O)c12 [Compound 2, amentoflavone]
System tested: SARS-CoV-2 3CL Protease (Severe acute respiratory syndrome coronavirus 2)
Result type: IC50
Recorded measurement: 136 µM
--
Molecule: CC1=CC(=O)c2c(O)cccc2C1=O [Plumbagin, reference compound]
System tested: SARS-CoV-2 3CL Protease (Severe acute respiratory syndrome coronavirus 2)
Result type: IC50
Recorded measurement: 87.6 µM
--
Molecule: C[C@@H]1O[C@@H](O[C@H]2[C@H](Oc3cc(O)c4c(c3)O[C@H](c3ccc(O)cc3)CC4=O)O[C@H](CO)[C@@H](O)[C@@H]2O)[C@H](O)[C@H](O)[C@H]1O [Compound 5, naringin]
System tested: SARS-CoV-2 3CL Protease (Severe acute respiratory syndrome coronavirus 2)
Result type: IC50
Recorded measurement: 28.6 µM
--
Molecule: O=c1cc(-c2ccc(O)cc2)oc2c([C@@H]3O[C@H](CO)[C@@H](O)[C@H](O)[C@H]3O)c(O)cc(O)c12 [Compound 3, vitexin]
System tested: SARS-CoV-2 3CL Protease (Severe acute respiratory syndrome coronavirus 2)
Result type: IC50
Recorded measurement: 231 µM
